Kindly state half-life for each of the entries shown.
- PROCEDURE_DETAILS: Half life for of compound in PBS with RBC suspension
- Format: ADME
- CONDITION_CONTEXT: RBC (red blood cell) suspension in PBS
Numbers only, in min.

[[record]]
compound = "CC[C@@]1(O)C(=O)OCc2c1cc1n(c2=O)Cc2c-1nc1ccc(O)cc1c2[Si](C)(C)CCCCl"
reported_result = 67.7

[[record]]
compound = "CC[C@@]1(O)C(=O)OCc2c1cc1n(c2=O)Cc2cc3ccccc3nc2-1"
reported_result = 30.8

[[record]]
compound = "CC[C@@]1(O)C(=O)OCc2c1cc1n(c2=O)Cc2c-1nc1ccccc1c2[Si](C)(C)C(C)(C)C"
reported_result = 79.4

[[record]]
compound = "CC[C@@]1(O)C(=O)OCc2c1cc1n(c2=O)Cc2c-1nc1ccccc1c2[Si](C)(C)CCCCl"
reported_result = 59.7


Consider the additional compound presented here.
Look up half-life for this compound: CCc1c2c(nc3ccc(O)cc13)-c1cc3c(c(=O)n1C2)COC(=O)[C@]3(O)CC [7-ETHYL-10-HYDROXYCAMPTOTHECIN]
24.4

###

- PROCEDURE_DETAILS: Inhibition against MDA-MB-435 S human breast cancer cells in the absence of albumin
- Type: functional, cell-based
MEASUREMENT_NAME: IC50
Note: a bare number is incomplete; add the unit.

What value of measured IC50 is listed for CC[C@@]1(O)C(=O)OCc2c1cc1n(c2=O)Cc2c-1nc1ccc(O)cc1c2[Si](C)(C)C(C)(C)C ?
14 nM

###

- Test system: MDA-MB-435
- PROCEDURE_DETAILS: Inhibition against MDA-MB-435 human breast cancer cells in the presence of 1 mg/mL HSA
MEASUREMENT_NAME: IC50 (nM)
Answers are plain numbers, in nM.

Field request: IC50 | item: CC[C@@]1(O)C(=O)OCc2c1cc1n(c2=O)Cc2cc3ccccc3nc2-1 [CAMPTOTHECIN]
375

###

- PROCEDURE_DETAILS: Half life for of compound in PBS with RBC suspension
- Type: ADME
- CONDITION_CONTEXT: human, RBC (red blood cell) suspension in PBS
MEASUREMENT_NAME: half-life (min)
Answers are plain numbers, in min.

If you can, please state the reported half-life value of CC[C@@]1(O)C(=O)OCc2c1cc1n(c2=O)Cc2c-1nc1ccc(O)cc1c2[Si](C)(C)C(C)(C)C .
51.4

###

- PROCEDURE_DETAILS: % lactone at different intervals of time in PBS with HSA suspension
- Assay type: ADME
- CONDITION_CONTEXT: human, buffer
MEASUREMENT_NAME: Lactone (%)
Answers are plain numbers, in %.

# example entries with known answers
[[record]]
compound = "CC[C@@]1(O)C(=O)OCc2c1cc1n(c2=O)Cc2c-1nc1ccccc1c2[Si](C)(C)CCCCl"
reported_result = 2.7

[[record]]
compound = "CC[C@@]1(O)C(=O)OCc2c1cc1n(c2=O)Cc2c-1nc1ccccc1c2[Si](C)(C)C(C)(C)C"
reported_result = 0.1


Dear reader, for each entry below, please note its Lactone.
1. CC[C@@]1(O)C(=O)OCc2c1cc1n(c2=O)Cc2c-1nc1ccc(O)cc1c2[Si](C)(C)C(C)(C)C [AR-67]
2. CC[C@@]1(O)C(=O)OCc2c1cc1n(c2=O)Cc2c-1nc1ccc(O)cc1c2[Si](C)(C)CCCCl

1. 10.5
2. 17.2

###

Kindly state half-life for each of the entries shown.
- PROCEDURE_DETAILS: Half life in human blood.
- Format: ADME, organism-based
- CONDITION_CONTEXT: whole blood
One number for each entry, in h.

Examples with their reported half-life follow.
[[record]]
compound = "CC[C@@]1(O)C(=O)OCc2c1cc1n(c2=O)Cc2c-1nc1ccccc1c2[Si](C)(C)CCCCl"
reported_result = 1.43

[[record]]
compound = "CCc1c2c(nc3ccc(O)cc13)-c1cc3c(c(=O)n1C2)COC(=O)[C@]3(O)CC [7-ETHYL-10-HYDROXYCAMPTOTHECIN]"
reported_result = 0.533

[[record]]
compound = "CC[C@@]1(O)C(=O)OCc2c1cc1n(c2=O)Cc2c-1nc1ccc(O)cc1c2[Si](C)(C)CCCCl"
reported_result = 1.09


Next item in the queue.
// half-life lookup, key: CC[C@@]1(O)C(=O)OCc2c1cc1n(c2=O)Cc2c-1nc1ccccc1c2[Si](C)(C)C(C)(C)C
1.18

###

Give Lactone for every item shown.
- PROCEDURE_DETAILS: % lactone at different intervals of time in PBS suspension
- Type: ADME
- CONDITION_CONTEXT: buffer
Answers are plain numbers, in %.

[[record]]
molecule = "CC[C@@]1(O)C(=O)OCc2c1cc1n(c2=O)Cc2c-1nc1ccccc1c2[Si](C)(C)CCCCl"
reported_result = 12

[[record]]
molecule = "CC[C@@]1(O)C(=O)OCc2c1cc1n(c2=O)Cc2c-1nc1ccc(O)cc1c2[Si](C)(C)C(C)(C)C [AR-67]"
reported_result = 10.2


Dear colleague, could you please provide Lactone for the molecules listed below?
1. CC[C@@]1(O)C(=O)OCc2c1cc1n(c2=O)Cc2c-1nc1ccc(O)cc1c2[Si](C)(C)CCCCl
2. CCc1c2c(nc3ccc(O)cc13)-c1cc3c(c(=O)n1C2)COC(=O)[C@]3(O)CC [7-ETHYL-10-HYDROXYCAMPTOTHECIN]
3. CC[C@@]1(O)C(=O)OCc2c1cc1n(c2=O)Cc2c-1nc1ccccc1c2[Si](C)(C)C(C)(C)C
4. CC[C@@]1(O)C(=O)OCc2c1cc1n(c2=O)Cc2cc3ccccc3nc2-1 [CAMPTOTHECIN]

1. 11.3
2. 15.3
3. 12.2
4. 17

###

- PROCEDURE_DETAILS: Equilibrium association constant interacting with unilamellar vesicles of electroneutral in PBS buffer at pH 7.4
- Assay type: ADME
Consider the following compounds; for each one, report its KDMPC.
Numbers only, in M⁻¹.

[[record]]
compound = "CC[C@@]1(O)C(=O)OCc2c1cc1n(c2=O)Cc2cc3c(CN(C)C)c(O)ccc3nc2-1"
measurement_name = "KDMPC"
reported_result = 10

[[record]]
compound = "CC[C@@]1(O)C(=O)OCc2c1cc1n(c2=O)Cc2c-1nc1ccc(O)cc1c2[Si](C)(C)C(C)(C)C"
measurement_name = "KDMPC"
reported_result = 2500

[[record]]
compound = "CC[C@@]1(O)C(=O)OCc2c1cc1n(c2=O)Cc2c-1nc1ccccc1c2[Si](C)(C)C(C)(C)C"
measurement_name = "KDMPC"
reported_result = 15500


# return KDMPC for each item in the list
1. CC[C@@]1(O)C(=O)OCc2c1cc1n(c2=O)Cc2c-1nc1ccccc1c2[Si](C)(C)CCCCl
2. CC[C@@]1(O)C(=O)OCc2c1cc1n(c2=O)Cc2cc3ccccc3nc2-1
3. CCc1c2c(nc3ccc(O)cc13)-c1cc3c(c(=O)n1C2)COC(=O)[C@]3(O)CC [7-ETHYL-10-HYDROXYCAMPTOTHECIN]
4. CC[C@@]1(O)C(=O)OCc2c1cc1n(c2=O)Cc2c-1nc1ccc(O)cc1c2[Si](C)(C)CCCCl

2800
100
260
2200

###

- PROCEDURE_DETAILS: Half life of compound in PBS suspension
- Type: ADME
Kindly state half-life for each of the entries shown.
Numbers only, in min.

// worked examples, half-life included
[[record]]
molecule = "CCc1c2c(nc3ccc(O)cc13)-c1cc3c(c(=O)n1C2)COC(=O)[C@]3(O)CC [7-ETHYL-10-HYDROXYCAMPTOTHECIN]"
reported_result = 20.9

[[record]]
molecule = "CC[C@@]1(O)C(=O)OCc2c1cc1n(c2=O)Cc2c-1nc1ccccc1c2[Si](C)(C)C(C)(C)C"
reported_result = 27.9

[[record]]
molecule = "CC[C@@]1(O)C(=O)OCc2c1cc1n(c2=O)Cc2c-1nc1ccccc1c2[Si](C)(C)CCCCl"
reported_result = 23.3

[[record]]
molecule = "CC[C@@]1(O)C(=O)OCc2c1cc1n(c2=O)Cc2c-1nc1ccc(O)cc1c2[Si](C)(C)CCCCl"
reported_result = 29.5


Now for a further molecule.
Quick one: half-life of CC[C@@]1(O)C(=O)OCc2c1cc1n(c2=O)Cc2c-1nc1ccc(O)cc1c2[Si](C)(C)C(C)(C)C ?
31.8

###

- PROCEDURE_DETAILS: Half life of compound in PBS with HSA suspension
- Format: ADME
- CONDITION_CONTEXT: human, HSA (human serum albumin) in PBS
MEASUREMENT_NAME: half-life
// unit must come after the numeric part

Observe how each entry below is paired with its result.
[[record]]
compound = "CC[C@@]1(O)C(=O)OCc2c1cc1n(c2=O)Cc2cc3ccccc3nc2-1 [CAMPTOTHECIN]"
reported_result = "11.9 min"

[[record]]
compound = "CCc1c2c(nc3ccc(O)cc13)-c1cc3c(c(=O)n1C2)COC(=O)[C@]3(O)CC [7-ETHYL-10-HYDROXYCAMPTOTHECIN]"
reported_result = "36.1 min"

[[record]]
compound = "CC[C@@]1(O)C(=O)OCc2c1cc1n(c2=O)Cc2c-1nc1ccc(O)cc1c2[Si](C)(C)C(C)(C)C [AR-67]"
reported_result = "119 min"

[[record]]
compound = "CC[C@@]1(O)C(=O)OCc2c1cc1n(c2=O)Cc2c-1nc1ccccc1c2[Si](C)(C)C(C)(C)C"
reported_result = "46.3 min"

[[record]]
compound = "CC[C@@]1(O)C(=O)OCc2c1cc1n(c2=O)Cc2c-1nc1ccccc1c2[Si](C)(C)CCCCl"
reported_result = "16 min"


Okay, next one:
What value of half-life has been recorded for this entry: CC[C@@]1(O)C(=O)OCc2c1cc1n(c2=O)Cc2c-1nc1ccc(O)cc1c2[Si](C)(C)CCCCl
48 min

The values you see were collected from ChEMBL document CHEMBL1133088.
